- system: RORγ (Homo sapiens)
- Sequence (P51449 269-508 limits assumed): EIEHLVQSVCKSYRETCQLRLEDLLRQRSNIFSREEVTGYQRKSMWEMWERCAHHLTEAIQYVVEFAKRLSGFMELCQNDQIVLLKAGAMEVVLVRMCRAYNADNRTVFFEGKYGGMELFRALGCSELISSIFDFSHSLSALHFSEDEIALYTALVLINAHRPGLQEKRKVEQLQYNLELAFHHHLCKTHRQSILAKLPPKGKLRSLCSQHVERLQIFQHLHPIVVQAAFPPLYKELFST
- assay: TR-FRET RORγ coactivator assay (LanthaScreen)
- experimental-setup: RORγ LBD
readout-kind: effect on RORγ in vitro activity (mode of modulation, in words)

Worked cases, effect on RORγ in vitro activity (mode of modulation, in words) given:
compound	result
CCS(=O)(=O)c1ccc(CNC(=O)c2ccc3c(c2)cc(Cc2ccc(F)cc2C(F)(F)F)n3C(C)C)cc1 [实施例4]	表现出激动的效果
CCS(=O)(=O)c1ccc(CNC(=O)c2ccc3c(c2)cc(Cc2ccc(OC(F)(F)F)cc2)n3C(C)C)cc1 [实施例18]	表现出抑制的效果
CCS(=O)(=O)c1ccc(CNC(=O)c2ccc3c(c2)cc(Cc2ccc(C(F)(F)F)cc2F)n3C(C)C)cc1 [实施例15]	表现出抑制的效果
CCS(=O)(=O)c1ccc(CNC(=O)c2ccc3c(c2)cc(Cc2ccc(C(F)(F)F)cc2)n3C(C)C)cc1 [实施例14]	表现出抑制的效果
CCc1ccccc1Cc1cc2cc(C(=O)NCc3ccc(S(=O)(=O)CC)cc3)ccc2n1C(C)C [实施例10]	表现出激动的效果

Inquiry: GET /values?readout=effect on RORγ in vitro activity (mode of modulation, in words)&item= CCS(=O)(=O)c1ccc(CNC(=O)c2ccc3c(c2)cc(Cc2cccc(C(F)(F)F)c2)n3C(C)C)cc1 [实施例17]
Reply text: 表现出抑制的效果
